tested.on: C3b (Homo sapiens (Human)) (UniProt P01024)
measure.name: C3b CFA: time (min.) for 50% cleavage of C3b α′-chain (min)
Give bare numbers, in min.

Here's what some known entries look like.
binder="D2D3M3M4 (S199K) (protein) CEVPTRLNSASLKQPYITQNYFPVGTVVEYECRPGYRREPSLSPKLTCLQNLKWSTAVEFCKKKSCPNPGEIRNGQIDVPGGILFGATISFSCNTGYKLFGKTSSFCLISGSSVQWSDPLPECREIYCTPPPKIKNGKHTFSEVEVFEYLDAVTYSCDPAPGPDPFSLIGESTIYCGDNSVWSRAAPECKVVKCRFPVVENGKQISGFGKKFYYKATVMFECDKGFYLDGSDTIVCDSNSTWDPPVPKCLKVL" value_observed=18.9
binder="D2D3M3M4 (T200Y) (protein) CEVPTRLNSASLKQPYITQNYFPVGTVVEYECRPGYRREPSLSPKLTCLQNLKWSTAVEFCKKKSCPNPGEIRNGQIDVPGGILFGATISFSCNTGYKLFGSYSSFCLISGSSVQWSDPLPECREIYCTPPPKIKNGKHTFSEVEVFEYLDAVTYSCDPAPGPDPFSLIGESTIYCGDNSVWSRAAPECKVVKCRFPVVENGKQISGFGKKFYYKATVMFECDKGFYLDGSDTIVCDSNSTWDPPVPKCLKVL" value_observed=103

We next turn to a different binder, shown below.
Notebook: D2D3M3M4 (T192E) (protein) CEVPTRLNSASLKQPYITQNYFPVGTVVEYECRPGYRREPSLSPKLTCLQNLKWSTAVEFCKKKSCPNPGEIRNGQIDVPGGILFGATISFSCNEGYKLFGSTSSFCLISGSSVQWSDPLPECREIYCTPPPKIKNGKHTFSEVEVFEYLDAVTYSCDPAPGPDPFSLIGESTIYCGDNSVWSRAAPECKVVKCRFPVVENGKQISGFGKKFYYKATVMFECDKGFYLDGSDTIVCDSNSTWDPPVPKCLKVL , C3b CFA: time (min.) for 50% cleavage of C3b α′-chain read as 74.3
